From: patent US20250179047A1

Record form. Attribute: TR_FRET EKI G101V/WT selectivty ratio. Fill in for each entry.
- Tested on: BCL2 G101V
- test_protocol: TR-FRET competitive binding assay, BCL2 G101V
- Set-up: species or system human
- condition_parameters: ratio Ki BCL2 G101V / Ki BCL2 WT
I'd appreciate a reply containing only the number, no unit.

Sure, the documented TR_FRET EKI G101V/WT selectivty ratio for Cc1c(N(C(=O)c2cc(-c3cc4c(cc3C(=O)N3Cc5ccccc5C[C@H]3C)CN(C(=O)Cc3ccc(OCCN5C[C@H](C)O[C@@H](C)C5)cc3)CC4)n(C)c2C)c2ccc(O)cc2)cc(C#N)n1C (single isomer, unassigned) is 1.8

Sure, the documented TR_FRET EKI G101V/WT selectivty ratio for `Cc1c(N(C(=O)c2cc(-c3cc4c(cc3C(=O)N3Cc5ccccc5C[C@H]3CN3CCC(F)CC3)CN(C(=O)Cc3ccc(OCCN5CCOCC5)cc3F)CC4)n(C)c2C)c2ccc(O)cc2)cc(C#N)n1C` is 3.9

Sure, the documented TR_FRET EKI G101V/WT selectivty ratio for `COCCn1c(C#N)cc(N(C(=O)c2cc(-c3cc4c(cc3C(=O)N3Cc5ccccc5C[C@H]3C)CN(C(=O)Cc3ccc(OCCN5CCOCC5)cc3)CC4)n(C)c2C)c2ccc(O)cc2)c1C` is 5.7

Sure, the documented TR_FRET EKI G101V/WT selectivty ratio for `Cc1c(N(C(=O)c2cc(-c3cc4c(cc3C(=O)N3Cc5ccccc5C[C@H]3C)CN(S(=O)(=O)Cc3ccccc3)CC4)n(C)c2C)c2ccc(O)cc2)cc(C#N)n1C` is 5.4

Sure, the documented TR_FRET EKI G101V/WT selectivty ratio for `Cc1c(N(C(=O)c2cc(-c3cc4c(cc3C(=O)N3Cc5ccccc5C[C@H]3C)CN(C(=O)Cc3ccc(F)cc3)CC4)n(C)c2C)c2ccc(O)cc2)cc(C#N)n1C` is 7.3
